- assayed-system: Ras GEF SOS (Son of Sevenless) (Homo sapiens)
- Sequence (Q07889 564-1049 limits assumed): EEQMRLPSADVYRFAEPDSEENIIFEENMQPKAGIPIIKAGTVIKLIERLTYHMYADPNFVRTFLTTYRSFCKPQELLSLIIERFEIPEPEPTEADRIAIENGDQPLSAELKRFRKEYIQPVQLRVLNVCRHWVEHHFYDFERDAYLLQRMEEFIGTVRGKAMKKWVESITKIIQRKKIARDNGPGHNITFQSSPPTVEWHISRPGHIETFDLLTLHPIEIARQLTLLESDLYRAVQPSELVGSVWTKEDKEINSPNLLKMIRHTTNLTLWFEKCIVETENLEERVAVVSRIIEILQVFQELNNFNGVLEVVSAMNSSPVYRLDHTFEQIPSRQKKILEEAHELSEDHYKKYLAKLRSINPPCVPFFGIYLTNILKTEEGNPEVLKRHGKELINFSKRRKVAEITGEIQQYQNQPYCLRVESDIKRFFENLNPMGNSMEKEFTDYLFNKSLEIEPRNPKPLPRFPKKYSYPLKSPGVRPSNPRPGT
- Sequence (P01112 1-166 partner limits assumed): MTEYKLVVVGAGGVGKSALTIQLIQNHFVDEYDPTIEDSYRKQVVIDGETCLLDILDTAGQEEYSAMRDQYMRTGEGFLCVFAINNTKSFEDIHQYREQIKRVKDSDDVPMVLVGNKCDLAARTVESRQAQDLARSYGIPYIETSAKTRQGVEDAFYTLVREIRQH
- protocol-description: SOS-mediated nucleotide exchange on Ras (BODIPY-GDP fluorescence)
- cond: SOS-mediated exchange of BODIPY-GDP for GTP on Ras
Structures can show the parent of a compound that is named as a salt.
readout-type: EC50

Solved cases below.
| molecule | EC50 |
| --- | --- |
| CCc1cc(Cn2c(N3CCNCC3)nc3cc(C)c(C)cc32)cc(CC)c1F [Example 49, trifluoroacetate] | 1 to 5 µM |
| Cc1cc2nc(N3CCNCC3)n(Cc3ccc(Br)c(Cl)c3)c2cc1C [Example 39, trifluoroacetate] | 1 to 5 µM |
| Cc1cnc2nc(N3CCCC(N)C3)n(Cc3ccc(F)c(C)c3)c2c1 (centres unmarked) | 1 to 5 µM |
| Cc1cc2nc(N3CCNCC3)n(Cc3cc(Cl)c(F)c(Cl)c3)c2cc1C | 1 to 5 µM |

Attention now shifts to the item below.
Item: Cc1cc2nc(NC3CCNCC3)n(Cc3ccc(F)c(Cl)c3)c2cc1C | System: Ras GEF SOS (Son of Sevenless) (Homo sapiens) | EC50: 30 to 100 µM

Values were extracted from patent US10501421B1.
